- TARGET OR TEST SYSTEM: human ether-à-go-go-related gene (hERG) potassium channel (human);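 also: peak tail current of the secondary pulse compared with the same well before compound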
- Sequence (Q12809 whole entry, looked up): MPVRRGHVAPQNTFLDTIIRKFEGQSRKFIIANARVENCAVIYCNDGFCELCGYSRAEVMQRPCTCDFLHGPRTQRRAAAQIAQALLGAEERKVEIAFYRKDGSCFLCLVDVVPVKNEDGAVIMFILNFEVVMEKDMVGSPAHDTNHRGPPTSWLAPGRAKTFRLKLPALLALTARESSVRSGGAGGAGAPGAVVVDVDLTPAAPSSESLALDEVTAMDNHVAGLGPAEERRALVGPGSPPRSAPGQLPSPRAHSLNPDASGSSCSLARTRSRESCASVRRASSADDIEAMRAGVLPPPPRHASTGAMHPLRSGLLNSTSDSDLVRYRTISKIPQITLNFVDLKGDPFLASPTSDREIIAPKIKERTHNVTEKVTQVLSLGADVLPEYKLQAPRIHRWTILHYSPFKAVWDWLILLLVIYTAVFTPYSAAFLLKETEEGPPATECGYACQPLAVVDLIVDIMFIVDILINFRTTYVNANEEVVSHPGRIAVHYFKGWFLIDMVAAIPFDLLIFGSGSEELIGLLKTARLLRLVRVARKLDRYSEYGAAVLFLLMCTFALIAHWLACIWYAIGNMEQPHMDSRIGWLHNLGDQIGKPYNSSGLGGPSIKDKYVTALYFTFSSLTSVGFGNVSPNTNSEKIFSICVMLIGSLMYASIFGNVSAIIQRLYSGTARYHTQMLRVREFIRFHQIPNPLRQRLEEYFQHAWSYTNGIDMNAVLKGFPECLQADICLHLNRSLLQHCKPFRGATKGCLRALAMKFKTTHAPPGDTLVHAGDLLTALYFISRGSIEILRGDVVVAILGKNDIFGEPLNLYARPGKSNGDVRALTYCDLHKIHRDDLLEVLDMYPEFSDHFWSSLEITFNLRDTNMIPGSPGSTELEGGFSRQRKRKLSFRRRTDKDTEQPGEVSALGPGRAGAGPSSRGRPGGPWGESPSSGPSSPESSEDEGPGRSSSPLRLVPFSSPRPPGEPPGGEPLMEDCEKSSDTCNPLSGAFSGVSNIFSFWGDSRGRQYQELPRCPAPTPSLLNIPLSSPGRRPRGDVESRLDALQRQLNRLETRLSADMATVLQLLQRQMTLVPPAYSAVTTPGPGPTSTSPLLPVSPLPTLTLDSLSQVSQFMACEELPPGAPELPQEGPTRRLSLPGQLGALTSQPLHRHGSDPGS
- ASSAY INFO: primary screen, population patch clamp on CHO cells stably expressing hERG; higher = less effect of the substance
About 14,000 (4.5%) of roughly 310,000 compounds showed an effect of 50% or more. Effects have a minus sign here. The list comes from a sample in which strong results are over-represented; it also holds close analogues and randomly drawn compounds.
For each entry below, report its hERG current change (%, negative = inhibition) at 10uM value.
Give the value in % but do not write % after it.

Input: Report hERG current change (%, negative = inhibition) at 10uM, nothing else, for this molecule: C=CCOc1ccc(CNn2cn[nH]c2=S)cc1OCC
Output: 12.7

Input: Quick one: give measured hERG current change (%, negative = inhibition) at 10uM for N#C/C(=C\c1ccco1)Sc1nc2ccccc2s1
Output: 0.525

Input: Item O=C(Nc1cccc([N+](=O)[O-])c1)c1ccccc1 : provide hERG current change (%, negative = inhibition) at 10uM
Output: 7.97

Input: Look up hERG current change (%, negative = inhibition) at 10uM of Cc1cc(NC(=O)CCC(=O)N(Cc2ccccc2)C2(C(=O)NC3CCCCC3)CCCC2)no1 and report it.
Output: 21.1

Input: Dear colleague, please send me the reported hERG current change (%, negative = inhibition) at 10uM for S=C(NCCCc1ccccc1)Nc1ccc(Br)cc1 when you can.
Output: 17.9

Input: Fill in reported hERG current change (%, negative = inhibition) at 10uM for this entry: CC(=O)C1C(c2ccc3ncccc3c2)NC(=O)NC1(O)C(F)(F)F (centres unmarked)
Output: 10.9

Input: Provide hERG current change (%, negative = inhibition) at 10uM value for the following molecule: O=C(C[n+]1cccc(NC(=O)c2ccccc2)c1)c1cccc([N+](=O)[O-])c1.[Br-]
Output: -76.3

Input: Give reported hERG current change (%, negative = inhibition) at 10uM value for O=C(C[n+]1cccc2ccccc21)c1ccc([N+](=O)[O-])cc1.[Br-]
Output: -72.4

Input: Indicate the recorded hERG current change (%, negative = inhibition) at 10uM value for this molecule: COc1ccc(CN2C(=O)NC3(CCCc4ccccc43)C2=O)cc1F (centres unmarked)
Output: -14.4

Input: Report hERG current change (%, negative = inhibition) at 10uM for Cc1ccc(OCC(=O)NCCc2c[nH]c3ccccc23)cc1
Output: 17.1

Input: Provide one value: measured hERG current change (%, negative = inhibition) at 10uM of Cc1nnc(SCC(=O)N/N=C/c2ccc(-c3ccc(C)c(Cl)c3)o2)s1
Output: -1.51

Input: Supply reported hERG current change (%, negative = inhibition) at 10uM belonging to this molecule: Cc1ccc(N2CCN(S(=O)(=O)c3nnc(NC(=O)c4ccco4)s3)CC2)cc1
Output: 15.6

Input: Using known records, supply hERG current change (%, negative = inhibition) at 10uM for O=C(CCc1nnc2ccc(NCc3ccc(F)cc3)nn12)N1CCC2(CC1)OCCO2
Output: -0.229

Input: Identify measured hERG current change (%, negative = inhibition) at 10uM corresponding to O=C(C[n+]1cccc(NC(=O)c2ccccc2)c1)c1ccccc1.[Br-]
Output: -18.1

Input: Could you please provide reported hERG current change (%, negative = inhibition) at 10uM for CCc1n[nH]c(=S)n1/N=C/c1c(C)nn(-c2ccccc2)c1Cl ? Thanks!
Output: 21.4

Input: Find the measured hERG current change (%, negative = inhibition) at 10uM of O=C(Nc1ccccc1)c1ccco1 and report it.
Output: 15

Input: Give the reported hERG current change (%, negative = inhibition) at 10uM for this molecule. Cc1cc(C)c(Nc2cc(S(=O)(=O)[O-])c(N)c3c2C(=O)c2ccccc2C3=O)c(C)c1.[Na+]
Output: 12

Input: Kindly indicate its recorded hERG current change (%, negative = inhibition) at 10uM. Item: CC(C)C[C@@H](CSc1ccccc1)N1CCN(CC(C)C)CCC1=O
Output: -75

Input: Return hERG current change (%, negative = inhibition) at 10uM for the following molecule: Cc1cccc(-c2noc(-c3ccc(F)cc3)n2)c1
Output: 15.1

Input: Report hERG current change (%, negative = inhibition) at 10uM for CCOc1ccc(C(=O)Nn2cnnc2)cc1OCC
Output: -70.4

Input: Input O=C(CCc1nnc2ccc(NCc3ccco3)nn12)N1CCN(c2ccccc2)CC1 , output reported hERG current change (%, negative = inhibition) at 10uM.
Output: -56.3

Input: Determine its reported hERG current change (%, negative = inhibition) at 10uM: CSc1cccc(NC(=O)OC2CCCCCCCCCCC2)c1
Output: 7.83

Input: Supply recorded hERG current change (%, negative = inhibition) at 10uM for CC1CCCC/C1=N\NC(=S)Nc1cccnc1 (centres unmarked) here.
Output: 15.8

Input: Give reported hERG current change (%, negative = inhibition) at 10uM value for COc1coc(C(O)CN)cc1=O (centres unmarked)
Output: 4.57

Input: Return the recorded hERG current change (%, negative = inhibition) at 10uM value; entry: CCCNC(=O)NCc1ccc(N2CCCC2=O)cc1
Output: 8.43

Input: Assign hERG current change (%, negative = inhibition) at 10uM to the following record: Cc1ccc(C)c(NC(=O)CCN2CC(C)OC(C)C2)c1 (centres unmarked)
Output: 1.59

Input: Check the records and state hERG current change (%, negative = inhibition) at 10uM for O=C(NCc1ccco1)c1ccc(COc2ccc(Cl)cc2)cc1
Output: 0.911

Input: Give a short answer stating reported hERG current change (%, negative = inhibition) at 10uM for O=C(NC1CCN(C(=S)Nc2ccccc2Cl)CC1)C1CCCCC1 .
Output: 14

Input: Given the molecule O=C(N/N=C/c1ccc(N2CCOCC2)cc1)c1ccc(NS(=O)(=O)c2cccs2)cc1 , write its reported hERG current change (%, negative = inhibition) at 10uM.
Output: 9.69

Input: Given the molecule NC(=O)c1ccc[n+](CC(=O)c2ccc(NC(=O)c3ccccc3)cc2)c1.[Br-] , write its reported hERG current change (%, negative = inhibition) at 10uM.
Output: 27.1

Input: Supply recorded hERG current change (%, negative = inhibition) at 10uM for COCC(C)NC(=O)CSc1nc2ccccc2n1CCc1ccccc1 (centres unmarked) here.
Output: -8.53

Input: Supply measured hERG current change (%, negative = inhibition) at 10uM of Cc1cc(NC(=O)c2ccc(F)cc2)ccc1NC(=O)c1ccco1 in your reply.
Output: 2.98

Input: Provide measured hERG current change (%, negative = inhibition) at 10uM value, entry: CCOc1cc2c(C#N)c(N3CCNCC3)nc(N)c2c(N)n1
Output: 5.41

Input: Please list hERG current change (%, negative = inhibition) at 10uM recorded for the molecule O=C(c1cccnc1)N1C2C=CC(C2)C1(C(F)(F)F)C(F)(F)F (centres unmarked)
Output: 14.6

Input: Fill in hERG current change (%, negative = inhibition) at 10uM for record CC(Oc1ccc([N+](=O)[O-])cc1)C(=O)NCC1CCCO1 (centres unmarked)
Output: -7.02

Input: Determine from records and report hERG current change (%, negative = inhibition) at 10uM for Cc1ccc(NC(=O)CCc2nnc3ccc(NCc4ccco4)nn23)cc1F
Output: -70.9

Input: Tell me its hERG current change (%, negative = inhibition) at 10uM given O=C(Nc1ccc[n+](CC(=O)c2cccc3ccccc23)c1)c1ccccc1.[Br-] as the entry.
Output: -58.9

Input: State, in one line, measured hERG current change (%, negative = inhibition) at 10uM of CCCCN(CCO)CCCC
Output: 14

Input: Answer with the recorded hERG current change (%, negative = inhibition) at 10uM for the molecule listed here: Cn1c(=O)oc2cc(S(=O)(=O)NCCC(=O)N3CCN(c4ccccc4F)CC3)ccc21
Output: -17

Input: Specify measured hERG current change (%, negative = inhibition) at 10uM for Cc1cc[n+](CC(=O)c2ccc(NC(=O)c3ccccc3)cc2)c2ccccc12.[Br-] .
Output: 7.1

Input: Report hERG current change (%, negative = inhibition) at 10uM, nothing else, for this molecule: O=C(CN1CCCC1)N/N=C/c1ccc(-c2cccc(Cl)c2)o1
Output: -62.2

Source listed as paper PMC4336329.
